- system.under.test: VEGF165 (Homo sapiens, UniProt P15692-4 P15692-4:27-191)
- Sequence (P15692 other isoform, or with tags, fused parts or gaps): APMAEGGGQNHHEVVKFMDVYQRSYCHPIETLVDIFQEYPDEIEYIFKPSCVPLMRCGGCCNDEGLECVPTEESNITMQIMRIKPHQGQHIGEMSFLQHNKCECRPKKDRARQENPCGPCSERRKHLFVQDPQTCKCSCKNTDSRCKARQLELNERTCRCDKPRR
- protocol: filter; 37 C
- condition.set: tags: carrier-free, Sf 21 insect cell expressed, R & D Systems; chain copies: 2 (inferred)
Recorded Kd split into classes low band (below 0.02 nM), middle band (0.02 nM to below 0.06 nM), high band (0.06 nM or more)

Bin? VP40.17 (ssRNA, 2'-F pyrimidines) RNA: GGGAGGACGAUGCGGUGAACCGAUGGAAUCGCUUGGACGCUCAUCGCACGUUGCUCAGACGACUCGCCCGA
low band

Where would VP30.1 (ssRNA, 2'-F pyrimidines) RNA: GGGAGGACGAUGCGGUCUUUGAGUUUUUGCCAACGGUUUUCGCUCAGACGACUCGCCCGA land among the classes by reported Kd?
high band

Input VT30.27 (ssRNA, 2'-F pyrimidines) RNA: GGGAGGACGAUGCGGGAUCACGGCUUUGCACGAUCUUCUUCUCCUCAGACGACUCGCCCGA ; output its category
high band

Just checking, what class would you give VP40.43 (ssRNA, 2'-F pyrimidines) RNA: GGGAGGACGAUGCGGACAGAAGAAUUGGGCUUCGCAUUAUCCUCUGUCAGCCGCCAGACGACUCGCCCGA here?
middle band

Hello team, could you let me know which band the following binder falls into: VP30.61 (ssRNA, 2'-F pyrimidines) RNA: GGGAGGACGAUGCGGGAGCUUGAAGUUUCAGUACUGGCACAACCUCAGACGACUCGCCCGA
middle band

Bin this entry: VT30.40 (ssRNA, 2'-F pyrimidines) RNA: GGGAGGACGAUGCGGAUUUGGAUGCAUGUCAAGGCGUUUUGCCCUCAGACGACUCGCCCGA
middle band

Hey, which category is VP40.18 (ssRNA, 2'-F pyrimidines) RNA: GGGAGGACGAUGCGGUAGUAAGUUAUUGAAAGCGCAUCUCUAUCAACUCUCGGCCCAGACGACUCGCCCGA in, do you know?
low band

# classify by Kd band: VP30.7 (ssRNA, 2'-F pyrimidines) RNA: GGGAGGACGAUGCGGAAGAAUUGGUCAUCGUCGUCUCCGCCUCCCCAGACGACUCGCCCGA
high band

Lab log: VP30.27 (ssRNA, 2'-F pyrimidines) RNA: GGGAGGACGAUGCGGAAGAAUUGGAUAUAUCGUUCACCCCCACCUCAGACGACUCGCCCGA — assign Kd category
high band

Determine which band this binder sits in: VP30.48 (ssRNA, 2'-F pyrimidines) RNA: GGGAGGACGAUGCGGGAGCUUGAAGUUUCGGUAUUGGCACAACCUCAGACGACUCGCCCGA
high band

Sort VP30.41 (ssRNA, 2'-F pyrimidines) RNA: GGGAGGACGAUGCGGUAGGAAGUAUUGUAAGCGCCUCGUUUUCGCCAGACGACUCGCCCGA into one of the categories.
low band

Category lookup for the binder VP40.4 (ssRNA, 2'-F pyrimidines) RNA: GGGAGGACGAUGCGGGAAGAAUUGAUGUUGUAUUGUCCUUCCGAUUUCCUGCCGUCAGACGACUCGCCCGA
high band

Kindly identify the class of VT30.29 (ssRNA, 2'-F pyrimidines) RNA: GGGAGGACGAUGCGGAAUCAGUGAAUGCUUAUAGCUCCGCGUGGUCAGACGACUCGCCCGA .
low band

State the band of VT30.18 (ssRNA, 2'-F pyrimidines) RNA: GGGAGGACGAUGCGGUUCAGAAUUGGCUGCGAUCCUUUUCCCCCUCAGACGACUCGCCCGA
low band

Kindly identify the class of VP30.23 (ssRNA, 2'-F pyrimidines) RNA: GGGAGGACGAUGCGGGAGCUUGAAGUUUCAGUAUUGGCACAACCUCAGACGACUCGCCCGA .
high band

Sort into band: VP40.26 (ssRNA, 2'-F pyrimidines) RNA: GGGAGGACGAUGCGGACUCAACUGGACGCUAUGUUGACGGUUAUCGCUUUUGGGUCAGACGACUCGCCCGA
low band

Hello team, could you let me know which band the following binder falls into: VP40.25 (ssRNA, 2'-F pyrimidines) RNA: GGGAGGACGAUGCGGAAUGGAAUUUGAGUCGAUCUAGAAUGCGUCGUAUGGGCUCAGACGACUCGCCCGA
high band
